Target: FGFR1 (UniProt P11362)
Sequence (P11362 whole entry, looked up): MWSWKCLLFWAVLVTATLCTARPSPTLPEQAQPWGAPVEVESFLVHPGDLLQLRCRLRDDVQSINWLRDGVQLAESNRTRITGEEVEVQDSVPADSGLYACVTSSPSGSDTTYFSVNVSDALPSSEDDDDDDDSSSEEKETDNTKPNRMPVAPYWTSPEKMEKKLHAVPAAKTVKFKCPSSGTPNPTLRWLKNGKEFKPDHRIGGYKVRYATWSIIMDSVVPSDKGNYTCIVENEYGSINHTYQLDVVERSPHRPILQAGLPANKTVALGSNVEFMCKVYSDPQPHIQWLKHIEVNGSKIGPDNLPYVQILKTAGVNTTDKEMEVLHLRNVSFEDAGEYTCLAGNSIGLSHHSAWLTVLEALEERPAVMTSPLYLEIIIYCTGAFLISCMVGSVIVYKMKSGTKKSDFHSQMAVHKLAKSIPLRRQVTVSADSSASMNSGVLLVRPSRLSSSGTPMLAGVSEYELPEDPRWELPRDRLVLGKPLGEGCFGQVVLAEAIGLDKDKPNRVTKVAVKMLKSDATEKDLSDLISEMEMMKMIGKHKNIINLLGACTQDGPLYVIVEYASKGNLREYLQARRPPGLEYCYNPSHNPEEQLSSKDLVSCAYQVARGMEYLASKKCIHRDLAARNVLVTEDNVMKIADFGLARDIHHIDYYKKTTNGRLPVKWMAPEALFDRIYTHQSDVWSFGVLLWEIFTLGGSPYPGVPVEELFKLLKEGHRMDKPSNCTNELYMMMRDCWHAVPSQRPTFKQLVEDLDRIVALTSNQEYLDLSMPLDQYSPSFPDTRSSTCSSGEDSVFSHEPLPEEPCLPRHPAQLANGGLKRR
Experiment: phosphorylation enrichment, bacterial display (enrichment ratio); higher = better substrate or ligand; peptides without Tyr show the background;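 further: 11-residue human phosphosite peptides and single-mutation variants displayed on the E. coli surface, counted by deep sequencing, each peptide's frequency after selection divided by its frequency in the unselected input library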;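 further: frequency after pTyr selection over input frequency; kinase dosed for 20-30% of maximal phosphorylation in three min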
Tick rule met if phosphorylation enrichment is 0.5 or greater. Tick rule not met if phosphorylation enrichment is less than 0.5.

KSVEEYANCHL [TF_Y593_P589S] : rule not met
PRIKTYMRPSP [TDP1_Y497_H493R] : rule not met
LKTNCYNNGKD [DNMT3B_Y404] : rule met
FLGEEYVKAVG [TF_Y674_YF] : rule not met
RLLRGYDQLAF [HLA-C_Y137_S140L_YF] : rule not met

Ask | hey, is phosphorylation enrichment for this one >= 0.5? PGLRGYPGLSG [COL4A2_Y306]
Reply | rule met
